Assay: in vivo
Conditions: both, NZW, rabbit, plasma, 30 mg
MEASUREMENT TYPE: Tmax

GET /values?readout=Tmax&item= CNC[C@H](O)c1ccc(O)c(O)c1 [Epinephrine]
36.7 min

---

Assay: in vivo
Conditions: both, NZW, rabbit, plasma, 60 mg
MEASUREMENT TYPE: half-life (h)
Unit h implied. Number only.

GET /values?readout=half-life&item= CNC[C@H](O)c1ccc(O)c(O)c1 [Epinephrine]
2.35

---

Experiment: in vivo
Settings: both, NZW, rabbit, plasma, 60 mg
MEASUREMENT TYPE: Tmax (min)
Unit min implied. Number only.

GET /values?readout=Tmax&item= CNC[C@H](O)c1ccc(O)c(O)c1 [Epinephrine]
44.2

---

Assay: in vivo
Conditions: both, NZW, rabbit, plasma, 30 mg
MEASUREMENT TYPE: half-life

GET /values?readout=half-life&item= CNC[C@H](O)c1ccc(O)c(O)c1 [Epinephrine]
1.44 h

---

Experiment: in vivo
Details: both, NZW, rabbit, plasma, im, 0.3 mg
Description: Sublingual tablets or IM doses were administered using a Randomized Crossover study design over 5-consecutive weeks. Animals were evaluated for viability once-daily throughout the study. […] Immediately after collection, the tube was inverted several times to disperse the anticoagulant and then placed on ice until centrifugation. […] (±10° C.) until analyzed. […] A freshly prepared standard curve was analyzed along with samples on each day of analysis. […]
MEASUREMENT TYPE: AUC(0-t) (ng·h/mL)
Unit ng·h/mL implied. Number only.

GET /values?readout=AUC(0-t)&item= CNC[C@H](O)c1ccc(O)c(O)c1 [Epinephrine]
54.3

---

Assay: in vivo
Conditions: both, NZW, rabbit, plasma, 60 mg
MEASUREMENT TYPE: AUC(0-inf)

GET /values?readout=AUC(0-inf)&item= CNC[C@H](O)c1ccc(O)c(O)c1 [Epinephrine]
0.3 µg·h/mL

---

Experiment: in vivo
Settings: both, NZW, rabbit, plasma, 15 mg
MEASUREMENT TYPE: half-life (min)
Unit min implied. Number only.

GET /values?readout=half-life&item= CNC[C@H](O)c1ccc(O)c(O)c1 [Epinephrine]
181

---

Assay: in vivo
Settings: both, NZW, rabbit, plasma, im, 0.3 mg
MEASUREMENT TYPE: Tmax (min)
Unit min implied. Number only.

GET /values?readout=Tmax&item= CNC[C@H](O)c1ccc(O)c(O)c1 [Epinephrine]
24

---

Test: in vivo
Settings: both, NZW, rabbit, plasma, 15 mg
MEASUREMENT TYPE: AUC(0-t) (ng·h/mL)
Unit ng·h/mL implied. Number only.

GET /values?readout=AUC(0-t)&item= CNC[C@H](O)c1ccc(O)c(O)c1 [Epinephrine]
74.9

---

Assay: in vivo
Conditions: both, NZW, rabbit, plasma, 15 mg
MEASUREMENT TYPE: AUC(0-inf)
Be sure to follow the number with its unit.

GET /values?readout=AUC(0-inf)&item= CNC[C@H](O)c1ccc(O)c(O)c1 [Epinephrine]
196 ng·h/mL
